Reported IC50, UniProt:O60674.
Sequence (O60674 whole entry): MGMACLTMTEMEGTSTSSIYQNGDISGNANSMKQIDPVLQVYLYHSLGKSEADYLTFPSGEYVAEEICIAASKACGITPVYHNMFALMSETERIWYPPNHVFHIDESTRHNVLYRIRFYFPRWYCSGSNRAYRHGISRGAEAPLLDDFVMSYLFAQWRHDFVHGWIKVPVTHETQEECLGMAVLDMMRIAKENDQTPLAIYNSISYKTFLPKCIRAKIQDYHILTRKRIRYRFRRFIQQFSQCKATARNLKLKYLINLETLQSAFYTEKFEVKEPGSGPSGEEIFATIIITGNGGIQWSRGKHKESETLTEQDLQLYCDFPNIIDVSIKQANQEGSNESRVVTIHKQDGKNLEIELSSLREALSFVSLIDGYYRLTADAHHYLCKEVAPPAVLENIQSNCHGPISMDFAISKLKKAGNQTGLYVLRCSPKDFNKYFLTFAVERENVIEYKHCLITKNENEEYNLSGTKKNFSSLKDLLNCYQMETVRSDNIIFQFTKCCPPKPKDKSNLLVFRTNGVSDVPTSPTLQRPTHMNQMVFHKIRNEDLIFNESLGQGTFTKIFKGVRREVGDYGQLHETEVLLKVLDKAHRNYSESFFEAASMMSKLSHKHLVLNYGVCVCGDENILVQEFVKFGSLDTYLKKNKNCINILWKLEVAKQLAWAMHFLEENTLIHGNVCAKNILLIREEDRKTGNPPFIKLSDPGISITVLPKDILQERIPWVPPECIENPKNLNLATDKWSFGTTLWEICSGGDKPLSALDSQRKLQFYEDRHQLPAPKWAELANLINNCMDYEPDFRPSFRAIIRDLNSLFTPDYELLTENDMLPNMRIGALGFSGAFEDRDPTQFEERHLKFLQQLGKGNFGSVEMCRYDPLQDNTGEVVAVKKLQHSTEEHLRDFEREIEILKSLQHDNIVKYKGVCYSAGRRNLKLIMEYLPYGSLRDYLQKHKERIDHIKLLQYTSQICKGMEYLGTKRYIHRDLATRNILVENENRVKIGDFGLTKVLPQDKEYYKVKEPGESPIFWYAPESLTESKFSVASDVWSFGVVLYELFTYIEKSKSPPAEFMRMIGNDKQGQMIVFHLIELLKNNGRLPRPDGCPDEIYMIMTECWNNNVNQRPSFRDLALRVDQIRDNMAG

>  <compound>
Cc1nccc(-c2cnc3[nH]ccc3c2N[C@H]2C[C@@H](NS(=O)(=O)c3cc(C#N)ccn3)C2)n1

>  <IC50>
≤ 10 nM

$$$$
>  <compound>
CCCS(=O)(=O)N[C@H]1C[C@@H](Nc2c(-c3nc(C(=O)NC)co3)cnc3[nH]ccc23)C1

>  <IC50>
10 to 100 nM

$$$$
>  <compound>
Cc1nnc(-c2cnc3[nH]ccc3c2N[C@H]2C[C@@H](NS(=O)(=O)c3cccc(C#N)c3)C2)o1

>  <IC50>
≤ 10 nM

$$$$
>  <compound>
Cc1nnc(-c2cnc3[nH]ccc3c2N[C@H]2C[C@@H](NS(=O)(=O)c3cccc(C#N)c3)C2)s1

>  <IC50>
≤ 10 nM

$$$$
>  <compound>
Cc1nccc(-c2cnc3[nH]ccc3c2N[C@H]2C[C@@H](NS(=O)(=O)c3cccc(C#N)c3)C2)n1

>  <IC50>
≤ 10 nM

$$$$
>  <compound>
CCCS(=O)(=O)N[C@H]1C[C@@H](Nc2c(-c3ncco3)cnc3[nH]ccc23)C1

>  <IC50>
≤ 10 nM

$$$$

Inquiry: Which IC50 is reported for this compound? CCOC(=O)c1cnc2[nH]ccc2c1NC1CC(NS(=O)(=O)c2cc(C#N)ccn2)C1 (mixture of isomers)
Reply text: 100 to 1000 nM
